Numbers sourced from PubChem BioAssay (NCI).

Assay: NCI Yeast Anticancer Drug Screen. Data for the mec2-1 strain (AID 157)
Settings: S. cerevisiae mec2-1 strain, at 50.0 µM (retest, dose inferred, filed as 5.0)
The panel holds about 79,000 compounds, 15% with a hit somewhere; the sample as a whole holds those more often. The source made the active and inactive calls. No stated cut-off is given here; in the data, active means growth inhibition above about 70%; inactive means the rest.
Possible outcomes: active, inactive

molecule | label-value
CCCCCCCCCCCCCCCCCC(=O)NCCCN(C)C | active
CC[N+]1(C)CCC(O)(c2ccc(OC)cc2)C(C(=O)c2ccc(OC)cc2)C1 (stereo unspecified) | inactive
Cc1cc(S(=O)(=O)Nc2nnc3cnc4ccccc4n23)c(S)cc1Cl | inactive
CCN(CC)CCOc1cc(C)c2cc(Cc3ccccc3)ccc2n1 | inactive
O=c1ccc(=O)n(-c2ccccc2)[nH]1 | active
CC(C)CN(CC(C)C)C(=O)c1ccc(Cl)c(Cl)c1 | active
N=C1N=Nc2nc(C3(c4nc5n(c4O)C(=N)N=N5)Cc4ccccc4C3=O)c(O)n21 (stereo unspecified) | inactive
COc1cc(/C=N/Nc2nnc3c4ccccc4c4ncccc4c3n2)cc(OC)c1OC | inactive
CSc1nc(C)c(CCOC(C)=O)c(N=P(c2ccccc2)(c2ccccc2)c2ccccc2)n1 | inactive
Oc1cccc2cc(Cl)cnc12 | inactive
Cc1nc(-c2cc3cc([N+](=O)[O-])ccc3oc2=O)cs1 | active

###

Below, each of the compounds is paired with its reported growth inhibition value.
Experiment: NCI Yeast Anticancer Drug Screen. Data for the rad14 strain (AID 159);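 further: 0% = growth of vehicle-treated control cultures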
Settings: S. cerevisiae rad14 strain growth inhibition; at 1.2 µM; active compounds read high
Compounds without any hit were thinned out: in the full panel of roughly 79,000, 15% have a hit.
recorded-endpoint: growth inhibition (%)

compound | recorded-endpoint | reported
OCc1ccccc1Cc1ccccc1 | growth inhibition | -1
COc1ccc([N+](=O)[O-])c2c(NCCCN(C)C)c3ccccc3nc12 | growth inhibition | 4
CC(C)c1ccc(NC(=S)NC(=O)c2ccccc2)cc1 | growth inhibition | -19
O=C(/C=C/c1cc(Cl)cc(Cl)c1O)c1cccc(O)c1 | growth inhibition | 31
CCCC/C=C/C(C)(C(=O)OCC)C(=O)OCC | growth inhibition | -5
Cc1sc2ccc3ccccc3c2[n+]1C | growth inhibition | -34
Cc1ccc(NC(=O)/C(CC2N=c3c(ccc4c(O)c5ccccc5c(O)c34)=NC2O)=N/NC(C)(C)C)cc1 (stereo unspecified) | growth inhibition | 9
COc1cc([C@@H]2c3cc4c(cc3[C@H](OC3OC5COC(C(C)C)OC5C(O)C3O)C3COC(=O)[C@@H]32)OCO4)cc(OC)c1O (stereo partly specified) | growth inhibition | -14
Cc1cccc2c1nc1ccc(Cl)cc1[n+]2C | growth inhibition | 2
CCOC(=O)COc1c(OC)cc(C2C3=C(COC3=O)Oc3cc4c(cc32)OCO4)cc1OC (stereo unspecified) | growth inhibition | -3
O=c1c2ccccc2nc(-c2ccccc2)n1O | growth inhibition | 51

###

Test: NCI Yeast Anticancer Drug Screen. Data for the sgs1 strain (AID 173);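 further: 0% = growth of vehicle-only control cultures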
Conditions: S. cerevisiae sgs1 mutant, at 33.0 µM, active compounds read high
About 79,000 compounds went through this panel and 15% of them were active in at least one assay; those are over-represented in the sample as a whole.

molecule | growth inhibition / %
CCOC(=O)C(C(=O)OCC)=P(c1ccccc1)(c1ccccc1)c1ccccc1 | 4
CC(=O)OC1CCC2(C)C(=CC(C3C=C4CC(OC(C)=O)CCC4(C)C4=C3C3CC5OC6(CCC(C)CO6)C(C)C5C3(C)CC4)C3=C2CCC2(C)C3CC3OC4(CCC(C)CO4)C(C)C32)C1 (centres undefined) | 25
CCc1c[n+]([O-])c(C)cc1[N+](=O)[O-] | 85
COC(=O)CC1(O)C(/C=C/c2ccccc2)C(C(=O)OC)C(=O)C(C(=O)OC)C1C(=O)OC (centres undefined) | 4

###

Assay: NCI Yeast Anticancer Drug Screen. Data for the mlh1 strain (AID 171);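 further: 0% = growth of vehicle-treated control cultures of the same strain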
Conditions: S. cerevisiae mlh1 strain growth inhibition; at 3.7 µM; active compounds read high
The panel holds about 79,000 compounds, 15% with a hit somewhere; the sample as a whole holds those more often.
Below, each of the molecules is paired with its reported growth inhibition value.

molecule | growth inhibition / %
COc1ccc2c(c1)n([O-])c1ccccc1[n+]2=O | 3
CN(C)CCCCN1c2ccccc2Sc2ccc(N=[N+]=[N-])cc21 | 31
CC(C)(C)[Si](C)(C)OCC1CCC(n2cnc3c(NC(=O)c4ccccc4)ncnc32)O1 (stereo unspecified) | -3
CCO/C(C)=C(/C#N)C(N)=S | -3
CCn1c(O)c(C=Nc2ccccc2)s/c1=N/Nc1nc(-c2ccccc2)cs1 | 3
O=C1c2ccccc2C(=O)c2cc(CCl)ccc21 | 3
COc1cc([C@@H]2c3cc4c(cc3[C@H](OC3OC5COC(C(C)C)OC5C(O)C3O)C3COC(=O)[C@@H]32)OCO4)cc(OC)c1O (stereo partly specified) | -8
N#CC(=Nc1ccccc1F)Nc1ccccc1F | -5
Cc1ccc2c(c1)C1(SC(C)C(=O)N1c1ccc(Cl)cc1)C(=O)N2 (stereo unspecified) | 3
CCN(CC)CCOc1cc(C)c2cc(Cc3ccccc3)ccc2n1 | 1
O=C1OC(C2=CC(=O)c3ccccc3C2=O)C(Cl)=C1Cl (stereo unspecified) | 3

###

Test: NCI Yeast Anticancer Drug Screen. Data for the rad50EPP+ strain (AID 151);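 further: 0% = growth of vehicle-treated control cultures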
Settings: S. cerevisiae rad50 mutant strain, at 100.0 µM
Compounds without any hit were thinned out: in the full panel of roughly 79,000, 15% have a hit. Calls of active or inactive are those of the source. Rule as the data show it: active = growth inhibition above about 70%; inactive = the rest.
Possible outcomes: True for active, False for inactive

record-smiles | label-value
CC(=O)Nc1ccc(/C=C/[N+](=O)[O-])cc1 | True
O=C1C(=O)c2ccccc2C(O)=C1C(C1=C(O)c2ccccc2C(=O)C1=O)c1ccc(Cl)cc1 | False
CC[n+]1oc(C(=O)c2ccc(Cl)cc2)c(-c2ccccc2)c1-c1ccccc1.[Cl][Fe]([Cl])([Cl])[Cl] | True
Cc1sc2ccc3ccccc3c2[n+]1C | False
O=[N+]([O-])c1cc(F)c(F)cc1Sc1cc(F)c(F)cc1[N+](=O)[O-] | True

###

Assay: NCI Yeast Anticancer Drug Screen. Data for the mec2-1 strain (AID 157)
Details: S. cerevisiae mec2-1 strain, at 5.0 µM (retest, dose inferred, filed as 0.5), active compounds read high
About 79,000 compounds went through this panel and 15% of them were active in at least one assay; those are over-represented in the sample as a whole.

molecule | growth inhibition [%]
Cc1cc2c3ccccc3c3ccccc3c2nn1 | -46
Cc1ccc2nc(-c3cccc([N+](=O)[O-])c3)oc(=O)c2c1 | 39
CC(C)(C)[Si](C)(C)OCC1CCC(n2cnc3c(NC(=O)c4ccccc4)ncnc32)O1 (stereo unspecified) | -2
CCc1cc(O)c(Cl)c(C)c1Cl | 44
COc1nc2c(c(=O)n1C)N=C(c1ccccc1)[C@H](C(CC(=O)c1ccccc1)c1ccccc1)C(c1ccccc1)N2 (stereo partly specified) | 13
CC(C)c1ccc(NC(=S)NC(=O)c2ccccc2)cc1 | 0
CCOC(=O)C#Cc1ccc([N+](=O)[O-])cc1 | 12
O=C1NC(SSC2=NNC3(C(=O)N2)c2ccccc2-c2ccccc23)=NNC12c1ccccc1-c1ccccc12 | -11
O=C1C=C(Cl)C(=O)N1c1cccc(Cl)c1 | 8
O=C1c2ccccc2C(=O)c2cc(CCl)ccc21 | 12
Cc1c2cc[n+](Cc3ccc(I)cc3)cc2c(C)c2c1[nH]c1ccccc12 | 33

###

Assay: NCI Yeast Anticancer Drug Screen. Data for the wt1 strain (AID 149);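 further: 0% = growth of vehicle-treated wt1 cultures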
Details: S. cerevisiae wt1 strain (SPY 50644) growth inhibition; at 100.0 µM
This is part of a sample that, as a whole, favours compounds with a hit. Of some 79,000 tested, about 15% had one in any assay. Activity calls are given as the source filed them. Cut-off read from the data, not from the text of the source: active = growth inhibition above about 70%; inactive = the rest.
Possible outcomes: Y = active, N = inactive

compound | label-value
C=C(C(=C)n1nnc(C(=O)OC)c1C(=O)OC)n1nnc(C(=O)OC)c1C(=O)OC | N
O=C1N=C2SC=C(NC(=S)Nc3ccccc3)N2NC12c1ccccc1-c1ccccc12 | Y
c1ccc(-c2cnc3ccccc3c2)cc1 | Y
CCOC(=O)C1N=[N+](c2ccccc2)C(=O)/C1=C\n1c(=S)[nH]c2ccc([N+](=O)[O-])cc21 (stereo not given) | N
CCc1c(Cl)c(C)cc(O)c1Cl | Y
CCC(C)OC(=O)Nc1ccc(C)c(NC(=O)OC(C)CC)c1 (stereo not given) | Y
C[C](C)(C)[Ge]([O][Ge]([c]1ccccc1)[c]1ccccc1)([O][Ge]([c]1ccccc1)[c]1ccccc1)[C](C)(C)C | Y
Cc1csc(=S)n1OC(=O)NC1CCCCC1 | Y
Cc1ccc(NC(c2ccccc2)c2ccc3cccnc3c2O)cc1 (stereo not given) | N
CCN(CC)CCNc1ccc2ncn3c4cc(OC)c(OC)c(=O)c4c(O)c1c23 | N

###

Test: NCI Yeast Anticancer Drug Screen. Data for the wt1 strain (AID 149);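 further: 0% = growth of vehicle-treated wt1 cultures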
Settings: S. cerevisiae wt1 strain (SPY 50644) growth inhibition; at 1.2 µM; active compounds read high
The panel holds about 79,000 compounds, 15% with a hit somewhere; the sample as a whole holds those more often.
recorded-endpoint: growth inhibition (%)

compound | recorded-endpoint | reported
CC(=O)OC1CC2C(C)(C)C(=O)C=C[C@]2(C)C2CCC3(C)C(=CCC3[C@H](CO)C[C@H](O)C(=O)C(C)(C)O)[C@]12C (some centres not stated) | growth inhibition | -26
Nc1ccc(F)cc1S | growth inhibition | -7
N#CC1=C(N)N(/N=C/c2ccccc2)C(c2ccccc2)C1(C#N)C#N (configuration not stated) | growth inhibition | 12
OC(/C=C/c1ccccc1)(Cc1cc(-c2ccccc2)n[nH]1)c1ccccc1 (configuration not stated) | growth inhibition | 9
COc1cc([C@@H]2c3cc4c(cc3[C@H](OC3OC5COC(C(C)C)OC5C(O)C3O)C3COC(=O)[C@@H]32)OCO4)cc(OC)c1O (some centres not stated) | growth inhibition | -25
O=C1/C(=C/c2ccccc2)CCCC1CN1CCCCC1 (configuration not stated) | growth inhibition | 10
Cc1nc2c(Br)cc(Br)cc2c(=O)n1-c1ccccc1NC1OCC(O)C(O)C1O (configuration not stated) | growth inhibition | -50
COC(=O)C1=C(C(=O)OC)C(C(=O)OC)C(C(=O)OC)C(C(=O)OC)(C(=O)OC)C(C(=O)OC)=C1C(=O)OC (configuration not stated) | growth inhibition | -11
O=[N+]([O-])c1cc(S(=O)(=O)Nc2ccccc2)ccc1Nc1ccccc1 | growth inhibition | -16
O=C(CC(C(=O)O)N1CCOCC1)c1ccccc1 (configuration not stated) | growth inhibition | -1
CC1SC2(C(=O)Nc3ccc(Cl)cc32)N(c2ccc(Cl)cc2)C1=O (configuration not stated) | growth inhibition | -3
CCN(CC)CCNc1ccc([N+](=O)[O-])c2nc3ccccc3c(N)c12 | growth inhibition | -10
Cc1ccc2c(c1)C1(SC(C)C(=O)N1c1ccc(Cl)cc1)C(=O)N2 (configuration not stated) | growth inhibition | 0
COC(C(O)CO)C(O)C(O)C(=O)NNc1ccccc1 (configuration not stated) | growth inhibition | 1
Cc1cc(NCCCCCCCCNc2cc(C)nc3cc(N)ccc23)c2ccc(N)cc2n1 | growth inhibition | -65
CC(C)OC(=O)c1ccc(CCc2cc(O)c(Br)cc2O)cc1 | growth inhibition | 26
Cc1ccccc1N=Cc1cc(Cl)ccc1O | growth inhibition | -4
CC1(C)CC(=O)C(/C=N/c2nc(-c3ccccc3)cs2)=C(O)C1 | growth inhibition | 2
Cc1cc2c3ccccc3c3ccccc3c2nn1 | growth inhibition | -7
C=C(Cl)COC(=O)Nc1cccc(Cl)c1 | growth inhibition | -1
COC(=O)C1(C)CCc2c(ccc3ccccc23)C1=O (configuration not stated) | growth inhibition | 0
N=C1N=Nc2nc(C3(c4nc5n(c4O)C(=N)N=N5)Cc4ccccc4C3=O)c(O)n21 (configuration not stated) | growth inhibition | 3
